- measurement.target: Axl (Homo sapiens)
- Construct: endogenous in cells; host or cells: HeLa cells
- Sequence (P30530 26-894): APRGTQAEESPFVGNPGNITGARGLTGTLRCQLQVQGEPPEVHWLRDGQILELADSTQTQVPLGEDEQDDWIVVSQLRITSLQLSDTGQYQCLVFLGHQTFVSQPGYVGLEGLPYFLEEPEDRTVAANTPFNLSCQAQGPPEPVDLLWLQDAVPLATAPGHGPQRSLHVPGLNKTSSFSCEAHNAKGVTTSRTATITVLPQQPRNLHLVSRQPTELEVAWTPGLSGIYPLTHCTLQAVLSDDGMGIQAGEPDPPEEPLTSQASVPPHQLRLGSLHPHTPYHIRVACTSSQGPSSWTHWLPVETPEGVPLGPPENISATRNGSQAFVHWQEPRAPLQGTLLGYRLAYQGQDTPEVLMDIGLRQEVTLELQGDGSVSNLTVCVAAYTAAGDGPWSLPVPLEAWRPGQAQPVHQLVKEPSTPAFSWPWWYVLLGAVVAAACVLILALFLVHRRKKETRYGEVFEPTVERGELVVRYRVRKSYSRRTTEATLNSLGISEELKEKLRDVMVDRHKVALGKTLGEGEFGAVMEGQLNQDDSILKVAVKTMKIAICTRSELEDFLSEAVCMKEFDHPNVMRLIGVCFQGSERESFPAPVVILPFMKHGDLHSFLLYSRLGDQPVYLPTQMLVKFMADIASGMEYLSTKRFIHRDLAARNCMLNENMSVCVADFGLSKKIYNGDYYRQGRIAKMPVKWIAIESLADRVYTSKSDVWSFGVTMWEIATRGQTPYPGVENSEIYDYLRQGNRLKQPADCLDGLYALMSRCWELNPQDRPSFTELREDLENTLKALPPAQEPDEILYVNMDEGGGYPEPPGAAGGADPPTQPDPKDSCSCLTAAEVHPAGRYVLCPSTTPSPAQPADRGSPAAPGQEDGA
- test.protocol: Phospho-Akt in-cell Western assay
- Format: cell-based
- condition.details: Table 1, formula (Ia); Hela cells, Axl antibody cross-linking stimulation, phospho-Akt readout
assay.readout: IC50

{"columns": ["compound", "value.observed"],
 "data": [
  ["CN(C)CC(=O)NC1CCc2ncc(Nc3nc(N)n(-c4cc(-c5ccccc5)c5c(n4)C4CCN5CC4)n3)cc2C1 (stereo not drawn) [Compound 3]", "< 1 µM"],
  ["Nc1nc(Nc2cnc3c(c2)CC(NC2CCCC2)CC3)nn1-c1cc(-c2ccccc2)c2c(n1)C1CCN2CC1 (stereo not drawn) [Compound 5]", "< 1 µM"],
  ["Nc1nc(Nc2cnc3c(c2)CC(N)CC3)nn1-c1cc(-c2ccccc2)c2c(n1)C1CCN2CC1 (stereo not drawn) [Compound 1]", "< 1 µM"]
]}
